From: paper PMC6212833

System: Balamuthia mandrillaris (ATCC PRA-291) trophozoites, axenic culture
protocol_details: primary screen, b score
settings: 20 µM
The full ranking holds about 2,000 compounds; the median of “B-score” is about -0.0024, and the highest 2% start at about 4. Only a selection was taken, and the highest values are over-represented in it overall.
Label scheme for B-score: lower than 1 is Not satisfied, 1 and above is Satisfied.

compound: O=c1oc2cc(O)ccc2s1
category_label: Satisfied
//
compound: CC(=O)c1ccc2c(c1)N(CCCN1CCC(CCO)CC1)c1ccccc1S2
category_label: Not satisfied
//
compound: COc1ccc(C(=O)N2CCCC2=O)cc1
category_label: Satisfied
//
compound: CCOC(=O)C1=C[C@@H](OC(CC)CC)[C@H](NC(C)=O)[C@@H](N)C1
category_label: Not satisfied
//
compound: CC1=NN(c2ccccc2)C(=O)C1
category_label: Not satisfied
//
compound: C#C[C@]1(O)CCC2C3CCC4=CC(=O)CC[C@@H]4C3CCC21CC (stereo partly drawn)
category_label: Not satisfied
//
compound: CC[C@H]1CN2CCC1C[C@@H]2[C@@H](O)c1ccnc2ccc(OC)cc12 (stereo partly drawn)
category_label: Not satisfied
//
compound: Cc1nc2c([nH]1)-c1ccccc1N(C(=O)c1ccc(NC(=O)c3ccccc3-c3ccccc3)cc1)CC2
category_label: Not satisfied
//
compound: CC(C)(C)CC(C)(C)c1cc(Cc2cc(C(C)(C)CC(C)(C)C)cc(-n3nc4ccccc4n3)c2O)c(O)c(-n2nc3ccccc3n2)c1
category_label: Not satisfied
//
compound: CO/N=C(\C(=O)N[C@@H]1C(=O)N2C(C(=O)O)=C(CSc3nc(=O)c(=O)[nH]n3C)CS[C@H]12)c1csc(N)n1
category_label: Not satisfied

### Prompt Entry CCCCCCCCCCCCCCCCCCCCCCO : is its B-score no less than 1?
### Response Not satisfied

### Prompt Entry Oc1nc2ccccc2n1CCCN1CCC(n2c(O)nc3cc(Cl)ccc32)CC1 : is its B-score no less than 1?
### Response Not satisfied

### Prompt Entry Cc1cc(-c2ccc(/N=N/c3ccc4c(S(=O)(=O)O)cc(S(=O)(=O)O)c(N)c4c3O)c(C)c2)ccc1/N=N/c1ccc2c(S(=O)(=O)O)cc(S(=O)(=O)O)c(N)c2c1O : is its B-score no less than 1?
### Response Satisfied

### Prompt Entry CCn1nc(C(=O)O)c(=O)c2cc3c(cc21)OCO3 : is its B-score no less than 1?
### Response Not satisfied

### Prompt Entry COCc1c(C(C)C)nc(C(C)C)c(/C=C/[C@@H](O)C[C@@H](O)CC(=O)O)c1-c1ccc(F)cc1 : is its B-score no less than 1?
### Response Satisfied

---

Tested on: Balamuthia mandrillaris (ATCC PRA-291) trophozoites, axenic culture
protocol_details: primary screen, b score
settings: 20 µM
The full ranking holds about 2,000 compounds; the median of “B-score” is about -0.0024, and the highest 2% start at about 4. Only a selection was taken, and the highest values are over-represented in it overall.
test_readout: B-score
Answer using only a numeral; do not append any unit.

Examples with their reported B-score follow.
compound: C[S+](CC[C@H](N)C(=O)O)C[C@H]1O[C@@H](n2cnc3c(N)ncnc32)[C@H](O)[C@@H]1O (some centres unmarked)
target_of_assay: Balamuthia mandrillaris (ATCC PRA-291) trophozoites, axenic culture
B-score: 0.856
//
compound: CC(=O)Nc1ccccc1
target_of_assay: Balamuthia mandrillaris (ATCC PRA-291) trophozoites, axenic culture
B-score: 1.19
//
compound: CN(C)CC(c1ccc(O)cc1)C1(O)CCCCC1 (centres unmarked)
target_of_assay: Balamuthia mandrillaris (ATCC PRA-291) trophozoites, axenic culture
B-score: -2.24

### Prompt Data request, read-out B-score, for O=C(O)CCCCCCCC(=O)O
### Response 0.466

### Prompt Data request, read-out B-score, for O=C(CCCCCCC(=O)Nc1ccccc1)NO
### Response 6.71

### Prompt Data request, read-out B-score, for CCN1CCN(C(=O)NC(C(=O)N[C@@H]2C(=O)N3[C@@H]2SC(C)(C)[C@@H]3C(=O)O)c2ccccc2)C(=O)C1=O (some centres unmarked)
### Response 2.04

### Prompt Data request, read-out B-score, for NC[C@@H]1O[C@H](O[C@H]2[C@@H](O)[C@H](O[C@@H]3[C@@H](O)[C@H](N)C[C@H](N)[C@H]3O[C@H]3O[C@H](CN)[C@@H](O)[C@H](O)[C@H]3N)O[C@@H]2CO)[C@H](N)[C@@H](O)[C@@H]1O
### Response 1.53

### Prompt Data request, read-out B-score, for Cc1c(NC(=O)c2cccnc2)c(=O)n(-c2ccccc2)n1C
### Response 12.5

### Prompt Data request, read-out B-score, for Cc1c(N(C)C)c(=O)n(-c2ccccc2)n1C
### Response 2.34

### Prompt Data request, read-out B-score, for CCOC(=O)/C=C(C)/C=C/C=C(C)/C=C/c1c(C)cc(OC)c(C)c1C
### Response -0.469

### Prompt Data request, read-out B-score, for COC(=O)N/N=C/c1c[n+]([O-])c2ccccc2[n+]1[O-]
### Response 2.88
